Where do the numbers come from? From patent US20240174690A1.

# Procedure Details: Plasma protein binding assay (PPB), equilibrium dialysis, 10% FCS in PBS
# Format: in vitro ADME
# Condition Details: bovine, read-out: PPB 10% FCS (% fu)
Readout Type: fraction unbound

Below: 2 compounds and their reported fraction unbound.
| Chemical Smiles | fraction unbound |
| --- | --- |
| CO[C@@H]1C[C@@H]([C@H](C)Oc2cc(-c3ccn(C)n3)nc(-c3onc4c3CCC[C@@]43CCCc4sc(N)c(C#N)c43)n2)N(C)C1 | 0.2 |
| C[C@H]1CN(C)CCCN1c1cc(N2CC[C@H](N(C)C)C2)nc(-c2noc3c2CCC[C@@]32CCCc3sc(N)c(C#N)c32)n1 | 0.16 |

I = CNC(=O)c1ccn(-c2cc(O[C@@H](C)[C@@H]3CCCN3C)nc(-c3noc4c3CCC[C@@]43CCCc4sc(N)c(C#N)c43)n2)n1
II = C[C@H](Oc1cc(-c2ccn(C)n2)nc(-c2noc3c2CCC[C@@]32CCCc3sc(N)c(C#N)c32)n1)[C@@H]1CCCN1C
III = C[C@H](Oc1cc(-n2ccnn2)nc(-c2onc3c2CCC[C@@]32CCCc3sc(N)c(C#N)c32)n1)[C@@H]1CCCN1C
IV = C[C@H](Oc1cc(-n2cc3ccn([C@@H]4CCOC4)c(=O)c3n2)nc(-c2noc3c2CCC[C@@]32CCCc3sc(N)c(C#N)c32)n1)[C@@H]1CCCN1C
Put the compounds in ascending order of fraction unbound. To answer, arrange all of the labels according to the requested order. IV, I, II, III

###

# Test system: AsPC-1 cells
# Procedure Details: AsPC-1 CTG proliferation assay (120 h) (pancreatic cancer, G12D)
# Format: cell-based
# Condition Details: Homo sapiens, ASPC1
Readout Type: IC50 (nM)

Please review the following examples before continuing.
| Molecule | Value Reported |
| --- | --- |
| C[C@H](Oc1cc(N2CCN(C)C3(COC3)C2)nc(-c2onc3c2CCC[C@@]32CCCc3sc(N)c(C#N)c32)n1)[C@@H]1C[C@@H](F)CN1C | 609 |
| C[C@H](Oc1cc(-c2ccn(CC(C)(C)O)n2)nc(-c2onc3c2CCC[C@@]32CCCc3sc(N)c(C#N)c32)n1)[C@@H]1CCCN1C | 2240 |
| C[C@H](Oc1cc(C2COCCO2)nc(-c2noc3c2CCC[C@@]32CCCc3sc(N)c(C#N)c32)n1)[C@@H]1CCCN1C (stereo partly drawn) | 3320 |
| C[C@H](Oc1cc(N2CCNC(C)(C)C2)nc(-c2noc3c2CCC[C@@]32CCCc3sc(N)c(C#N)c32)n1)[C@@H]1CCCN1C | 385 |
| C[C@H](Oc1cc(N2CCc3cccnc32)nc(-c2noc3c2CCC[C@@]32CCCc3sc(N)c(C#N)c32)n1)[C@@H]1CCCN1C | 3810 |
| COCCNC(=O)c1ccn(-c2cc(O[C@@H](C)[C@@H]3[C@@H](OC)CCN3C)nc(-c3noc4c3CCC[C@@]43CCCc4sc(N)c(C#N)c43)n2)n1 | 340 |
| C[C@H](Oc1cc(-n2cc(-c3cncs3)nn2)nc(-c2noc3c2CCC[C@@]32CCCc3sc(N)c(C#N)c32)n1)[C@@H]1CCCN1C | 1370 |
| C[C@H](Oc1cc(N2CCN[C@@H](C)C2)nc(-c2noc3c2CCC[C@@]32CCCc3sc(N)c(C#N)c32)n1)[C@@H]1CCCN1C | 922 |
| C[C@H](Oc1cc(-n2cc(Cn3ccnc3)nn2)nc(-c2noc3c2CCC[C@@]32CCCc3sc(N)c(C#N)c32)n1)[C@@H]1CCCN1C | 2010 |
| C[C@H](Oc1cc(-c2ccn(C)n2)nc(-c2noc3c2CCC[C@@]32CCCc3sc(N)c(C#N)c32)n1)[C@@H]1C[C@@H](F)CN1C | 4100 |

A = C[C@H](Oc1cc(-n2ccc(C3(O)COC3)n2)nc(-c2noc3c2CCC[C@@]32CCCc3sc(N)c(C#N)c32)n1)[C@@H]1CCCN1C
B = CO[C@H]1CCN(C)[C@@H]1[C@H](C)Oc1cc(-n2ccc(C(=O)N[C@H]3CCOC3)n2)nc(-c2noc3c2CCC[C@@]32CCCc3sc(N)c(C#N)c32)n1
C = C[C@H](Oc1cc(N2CCN(C)CC2)nc(-c2noc3c2CCC[C@@]32CCCc3sc(N)c(C#N)c32)n1)[C@@H]1CCCN1[C@@H]1CCOC1
Order the entries by their reported IC50, beginning at the minimum. Answer by listing the labels in the order asked for. B, A, C

P = C[C@H](Oc1cc(-c2ccn(-c3ccccc3)n2)nc(-c2noc3c2CCC[C@@]32CCCc3sc(N)c(C#N)c32)n1)[C@@H]1CCCN1C
Q = C[C@H](Oc1cc(N2CCNC3(CCC3)C2)nc(-c2noc3c2CCC[C@@]32CCCc3sc(N)c(C#N)c32)n1)[C@@H]1CCCN1C
Between the entries labelled P and Q , which has a larger IC50 value on record? Output the label that corresponds to your choice. P
(P: 3040 nM, Q: 261 nM)
